test system: UACC-62 melanoma; experiment: NCI tumour cell line growth inhibition, 48 h
In this section we review reported TGI values for a set of molecules.

The following molecules have reported results that may help.
CCN(CC)c1ccc2cc(C(=O)Nc3cccc4ccccc34)c(=N)oc2c1 : > 100 µM
CC1=NN(c2nc(N)nc(/C(C#N)=C/c3cccn3-c3cc(Cl)cc(Cl)c3)n2)C(C)(C)C1 : > 100 µM

As a next step, examine the molecule that follows.
Query: Answer with reported TGI of "O=c1c2cc(I)ccc2nc(-c2cccs2)n1-c1ccc(O)cc1"
Reply: 26.9 µM

---

tested on: A498 renal; experiment: NCI tumour cell line growth inhibition, 48 h
In this section we review reported TGI values for a set of compounds.
# number only, unit µM dropped from output

O=[N+]([O-])c1cccc([As]=[As]c2cccc([N+](=O)[O-])c2)c1 (stereo not given) : 0.231
COc1ccc(C(C#N)Cc2cc(OC)c(OC)c(OC)c2)cc1 (stereo not given) : 73.1
Nc1nc(Nc2ccc(C3CCC(N4CCOCC4)CC3)cc2)nn1-c1ccccn1 (stereo not given) : 20.1

As a next step, examine the compound that follows.
Query: Supply TGI measured with A498 renal for "O=C(Cn1c(C(=O)/C=C/c2cccs2)nc2ccccc21)c1ccc(Cl)cc1" .
Reply: 57.9
